Data provenance: paper PMC4370505

# assay_summary: Single dose intravenous pharmacokinetic study in Wistar rats
# Type: in vivo
# measurement_context: male, Wistar, rat, plasma, 10 mg/kg, mean ± SD
observable: MRT (h)
Numbers only, in h.

Requested read-out: MRT. Entry: Oc1ccc(/C=C/c2cc(O)cc(O)c2)cc1 [Resveratrol, trans-Resveratrol] 1.3

* * *

# assay_summary: Single dose intravenous pharmacokinetic study in Wistar rats
# Assay type: in vivo
# measurement_context: male, Wistar, rat, plasma, 10 mg/kg, mean ± SD
observable: AUC(0-inf)

Value lookup for AUC(0-inf); key = Oc1ccc(/C=C/c2cc(O)cc(O)c2)cc1 [Resveratrol, trans-Resveratrol] 2.4 µM·h

* * *

# assay_summary: Single dose intravenous pharmacokinetic study in Wistar rats
# Assay type: in vivo
# measurement_context: male, Wistar, rat, plasma, iv, 10 mg/kg, mean ± SD
observable: clearance (mL/min/kg)
Answers are plain numbers, in mL/min/kg.

Need clearance, item Oc1ccc(/C=C/c2cc(O)cc(O)c2)cc1 [Resveratrol, trans-Resveratrol] 333

* * *

# assay_summary: Single dose intravenous pharmacokinetic study in Wistar rats
# Type: in vivo
# measurement_context: male, Wistar, rat, plasma, 10 mg/kg, mean ± SD, read-out: t½ (converted)
observable: half-life
Field note: include the unit after the figure.

Suppose we examine the compound Oc1ccc(/C=C/c2cc(O)cc(O)c2)cc1 [Resveratrol, trans-Resveratrol] ; what half-life value has been reported? 1.4 h

* * *

# assay_summary: Single dose intravenous pharmacokinetic study in Wistar rats
# Type: in vivo
# measurement_context: male, Wistar, rat, plasma, 10 mg/kg, mean ± SD, read-out: Vss
observable: Vd (L/kg)
Answers are plain numbers, in L/kg.

Value lookup for Vd; key = Oc1ccc(/C=C/c2cc(O)cc(O)c2)cc1 [Resveratrol, trans-Resveratrol] 26.8
